The measured values listed here are drawn from patent US20160052996A1.

Recorded measurements of log10 EC50, one per entry
Biological target: T1, JCV VP1 VLP (JC virus (JCV), Mad-1 strain, UniProt P03089 1-354)
T1 construct: also called JCV VP1 VLPs; JCV VP1 (coating with reassociation buffer)
Test: direct ELISA
log10 EC50, nM

binder: NI-307.44F6B (antibody, V domains shown) VH: EVQLVESGGSVVRPGGSLRLACEVSGLRFDDFAMSWVRQVPGKGLEWIAGIFWNSGGTLYADSVKGRFTISRDNAENSLYLQMNSLRAEDTALYRCVRGRSHAAYYGMDVWGKGTTVTVSS VL: EIVLTQSPLSLPVTPGEPASISCRSSQSLLHSNGYNYLDWYLQKPGQSPQLLIYLGSNRASGVPDRFSGSGSGTDFTLTISRVEAEDVGIYYCMQALQNALAFGGGTKLEIK
log10 EC50: -1.08
--
binder: NI-307.24F3 (antibody, V domains shown) VH: QVQLQESGGGVVQPGRSLRLSCAASGFSFNRYGMHWVRQAPGKGLEWLAVISNDGVNTHYADSVKGRFTISRDNSKSTLYLQASSLRVEDTAVYYCAGYYYGSGTSLFFYWGQGTLVTVSS VL: EIVLTQSPDSLAVSLGERATINCKSSQTVLYSSNNQNYLAWYQQKPGQPPKLLLYWASTRESGVPDRFSGSGSGTDFTLTISSLQPEDVAVYYCQQYYTAPYTFGQGTKVEIK
log10 EC50: 0.84
--
binder: NI-307.26E10 (antibody, V domains shown) VH: EVQLVESGGGLVLPGGSLRLSCAVSGFTVRNEYMRWARQAPGRGLEWVSVIYRDGQTHHADTVKGRFDVSKDTSKNTMYLQMHNLRVDDTAIYYCARGHYGPWGQGTLVTVSS VL: DIQMTQSPSTLPASVGDRVTITCRASQSINNWLAWYQQKPGKAPNLLIYDASNLETGVPSRFSGSGSGTEFTLTISSLQPDDFATYYCQQYNSHSHTWTFGQGTKVEIK
log10 EC50: 1.17
--
binder: NI-307.19F10 (antibody, V domains shown) VH: EVQLVESGGGLVQPGGSVSLSCAASGFTFPVYWMHWVRQAPEKGLMWVSRISPDGTIVDYAGSVKGRFTVSRDNAKNILYLQIQRLTAEDTAVYFCTKDFDVASGFWGQGTLVTVSS VL: QSALTQPPSASGSPGQSVTISCTGSKSDVGTCHFVSWYQQHPGKVPKLVIYEGNKRPSGVPDRFSASKSGNTASLTISGLQPGDEADYYCSTCAGPNNYVFGTGTKVTVL
log10 EC50: 0.53

Read the next record carefully.
IN: Specify measured log10 EC50 for NI-307.43A11 (antibody, V domains shown) VH: QVQLQESGPGLVKPSGTLSLTCAVTGGSISSSNWWSWVRQSPGKGLEWIGEIHHDGNLNYNPLLKSRVSMSLDRSKNQFSLKLTSVTAADTAVYYCARWDFFFDSSYYIRGFDLWGQGTMVTVSS VL: ETTLTQSPGTLSLSPGERVTLSCRASQSVDRNYLAWYQQKPGQSPRLLIYSASRRATGIPDRFSGSGSGTDFTLTISRLEPEDFVVYYCQQYGGSPPITFGQGTRLEIK .
OUT: 0.79
